Test: Inhibition of jack bean alpha-mannosidase
Set-up: species or system Canavalia ensiformis
Readout Kind: Ki (µM)

(a) [O-][S+]1C[C@@H]2O[C@H]1[C@@H](O)[C@H](O)[C@@H]2O (stereo partly drawn)
(b) OC1[C@H](O)C2CSC(O2)[C@H]1O (single isomer, unassigned) [THIOLEVOMANNOSAN]
Kindly identify the item with the lower Ki figure among these two: a and b Output the label that corresponds to your choice. a
